Ref: ChEMBL document CHEMBL3885881

# Species on record: Rattus norvegicus
# test: DrugMatrix - Regimen: Daily Repeat
# Format: toxicity, organism-based, Sprague-Dawley
# Set-up: regimen Daily Repeat, gender Male, age 6-8 weeks
# condition.summary: in vivo, po, 0 mg/kg, 72 h, tissue Plasma, route oral GAVAGE, dose level Control, time 3 day, vehicle 100 % WATER
Exercise: state measured TOTAL BILIRUBIN for each of the compounds provided.
One number for each entry, in mg/dL.

- compound: "CC1COc2c(N3CCN(C)CC3)c(F)cc3c(=O)c(C(=O)O)cn1c23 (centres undefined)"
  reading.unit: "mg/dL"
  TOTAL BILIRUBIN: 0.2
- compound: "NCC1(CC(=O)O)CCCCC1"
  reading.unit: "mg/dL"
  TOTAL BILIRUBIN: 0.17
- compound: "NC(=O)c1ncn([C@@H]2O[C@H](CO)[C@@H](O)[C@H]2O)n1"
  reading.unit: "mg/dL"
  TOTAL BILIRUBIN: 0.2
- compound: "COc1cccc(C2(O)CCCCC2CN(C)C)c1 (centres undefined)"
  reading.unit: "mg/dL"
  TOTAL BILIRUBIN: 0.18
- compound: "Nc1ccc(S(=O)(=O)Nc2ccnn2-c2ccccc2)cc1"
  reading.unit: "mg/dL"
  TOTAL BILIRUBIN: 0.18

// each compound listed below needs its TOTAL BILIRUBIN
1. COc1cc2c(N3CCN(C(=O)Nc4ccc(OC(C)C)cc4)CC3)ncnc2cc1OCCCN1CCCCC1
2. NNC(=O)c1ccncc1
3. CN1CCC[C@H]1c1cccnc1
4. CNCCC=C1c2ccccc2CCc2ccccc21

1. 0.55
2. 0.13
3. 0.2
4. 0.22
